Molecular target: APOL1 (Homo sapiens, UniProt O14791)
Sequence (O14791 1-398 S342G/I384M): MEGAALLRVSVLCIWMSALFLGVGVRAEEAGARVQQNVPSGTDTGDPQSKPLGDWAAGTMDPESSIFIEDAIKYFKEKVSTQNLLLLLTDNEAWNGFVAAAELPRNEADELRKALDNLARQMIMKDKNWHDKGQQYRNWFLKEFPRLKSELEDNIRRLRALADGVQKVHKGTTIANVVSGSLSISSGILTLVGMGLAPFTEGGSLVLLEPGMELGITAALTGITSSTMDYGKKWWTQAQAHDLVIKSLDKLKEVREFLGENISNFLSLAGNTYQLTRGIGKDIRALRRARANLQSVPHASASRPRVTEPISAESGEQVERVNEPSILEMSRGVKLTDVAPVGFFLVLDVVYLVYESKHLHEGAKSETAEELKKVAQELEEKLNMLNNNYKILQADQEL
Assay: MultiTox-Fluor Multiplex Cytotoxicity Assay in tet-inducible APOL1 T-REx-HEK293 cells (cell rescue, ratio of dead to live cells)
Conditions: tet-inducible transgenic APOL1 T-REx-HEK293 cell lines, 50 ng/mL tet, 24 hours; read-out: IP50 (i.e., IC50 for cell proliferation)
Measured metric: IC50

stdin: Give the reported value of IC50 for this record: `CCc1cc2c(s1)CCO[C@@]21CCN(Cc2cn(Cc3nc(COC)no3)nn2)[C@@H](C)C1`
stdout: < 100 nM

stdin: Give the reported value of IC50 for this record: `CCc1cc2c(s1)CCO[C@@]21CCN(C[C@H]2C[C@@H](NC(=O)CN3CCc4ccccc43)C2)[C@@H](C)C1`
stdout: < 100 nM

stdin: Give the reported value of IC50 for this record: `C[C@H]1C[C@@]2(CCN1Cc1ccc[nH]c1=O)OCCc1cc(CC(F)F)sc12`
stdout: 100 to 500 nM

stdin: Give the reported value of IC50 for this record: `CNC(=O)[C@@H](O)CN1CC[C@]2(C[C@@H]1C)OCCc1cc(C(F)(F)F)sc12`
stdout: 500 to 1000 nM

From: patent US20250171459A1
